# methodSummary: Volume of distribution at steady state after intravenous administration in rat
# Type: ADME, organism-based
# conditions: in vivo, read-out: Vss
assayEndpoint: Vd (L/kg)
The answer is to be given in L/kg; state only the numeric part.

# Vd lookup, item Nc1ccc(S(=O)(=O)c2cc(Br)nc(N3CCCC3)c2)cc1
1.4

====

# methodSummary: Partition coefficient (logD7.4)
# Format: physicochemical
# conditions: octanol/water, pH 7.4
assayEndpoint: logD

Any idea what logD was measured for Nc1ccc(S(=O)(=O)c2cc(Br)nc(N3CCCC3)c2)cc1 ?
3.3

====

# targetOrTestSystem: 5-hydroxytryptamine receptor 7 (Homo sapiens)
# Sequence (P34969 whole entry): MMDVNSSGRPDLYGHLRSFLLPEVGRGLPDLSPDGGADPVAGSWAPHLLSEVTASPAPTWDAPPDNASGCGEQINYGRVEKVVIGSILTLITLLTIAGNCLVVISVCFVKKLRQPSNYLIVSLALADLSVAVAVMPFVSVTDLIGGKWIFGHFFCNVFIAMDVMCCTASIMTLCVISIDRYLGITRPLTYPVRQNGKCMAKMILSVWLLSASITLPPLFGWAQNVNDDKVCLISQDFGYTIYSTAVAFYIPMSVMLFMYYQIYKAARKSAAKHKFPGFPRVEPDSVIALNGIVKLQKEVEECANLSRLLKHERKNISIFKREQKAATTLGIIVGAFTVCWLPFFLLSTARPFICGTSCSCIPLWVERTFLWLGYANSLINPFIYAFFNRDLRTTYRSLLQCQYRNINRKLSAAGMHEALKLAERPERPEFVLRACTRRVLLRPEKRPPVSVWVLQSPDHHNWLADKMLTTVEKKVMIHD
The compounds listed here are annotated with their Ki.

Solved entries:
CNc1cc(NS(=O)(=O)c2ccc(N)cc2)nc(NC)n1 = > 10 µM
Nc1ccc(S(=O)(=O)c2cc(Br)nc(N3CCNCC3)c2)cc1 = > 10 µM

Now for a further compound.
Returns the measured Ki for the input compound. Input: CNc1cc(S(=O)(=O)c2ccc(N)cc2)cc(Br)n1
> 10 µM

====

# methodSummary: Dissociation constant was determined
assayEndpoint: pKa

Which pKa is reported for this compound? Nc1ccc(S(=O)(=O)c2cc(Br)nc(N3CCCC3)c2)cc1
< 2

====

# targetOrTestSystem: 5-hydroxytryptamine receptor 2C (Homo sapiens, UniProt P28335)
# Sequence (P28335 whole entry): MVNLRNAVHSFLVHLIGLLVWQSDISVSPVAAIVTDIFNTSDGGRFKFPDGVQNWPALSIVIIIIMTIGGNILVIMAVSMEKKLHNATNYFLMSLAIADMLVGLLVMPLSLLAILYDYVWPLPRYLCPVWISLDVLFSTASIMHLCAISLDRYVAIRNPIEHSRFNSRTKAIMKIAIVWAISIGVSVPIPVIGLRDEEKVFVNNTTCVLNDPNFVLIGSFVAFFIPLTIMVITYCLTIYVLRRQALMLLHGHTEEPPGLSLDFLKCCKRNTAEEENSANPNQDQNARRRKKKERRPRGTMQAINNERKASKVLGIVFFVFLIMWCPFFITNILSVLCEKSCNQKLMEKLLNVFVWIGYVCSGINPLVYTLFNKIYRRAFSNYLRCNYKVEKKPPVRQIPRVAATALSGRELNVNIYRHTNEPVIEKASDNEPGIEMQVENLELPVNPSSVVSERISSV
assayEndpoint: Ki (nM)
Could you give me the number in nM? Just the number is fine.

Could you share which Ki value was measured for Nc1ccc(S(=O)(=O)c2cc(Br)nc(N3CCNCC3)c2)cc1 ?
20.4

====

# methodSummary: Bioavailability after oral administration in rat expressed as percentage
# Type: ADME, organism-based
# conditions: in vivo
assayEndpoint: bioavailability
The reply should read as a number followed by its unit.

Quick one: bioavailability of Nc1ccc(S(=O)(=O)c2cc(Br)nc(N3CCCC3)c2)cc1 ?
46%

====

Here's what we have: pKi numbers for UniProt P50406.
Sequence (P50406 whole entry): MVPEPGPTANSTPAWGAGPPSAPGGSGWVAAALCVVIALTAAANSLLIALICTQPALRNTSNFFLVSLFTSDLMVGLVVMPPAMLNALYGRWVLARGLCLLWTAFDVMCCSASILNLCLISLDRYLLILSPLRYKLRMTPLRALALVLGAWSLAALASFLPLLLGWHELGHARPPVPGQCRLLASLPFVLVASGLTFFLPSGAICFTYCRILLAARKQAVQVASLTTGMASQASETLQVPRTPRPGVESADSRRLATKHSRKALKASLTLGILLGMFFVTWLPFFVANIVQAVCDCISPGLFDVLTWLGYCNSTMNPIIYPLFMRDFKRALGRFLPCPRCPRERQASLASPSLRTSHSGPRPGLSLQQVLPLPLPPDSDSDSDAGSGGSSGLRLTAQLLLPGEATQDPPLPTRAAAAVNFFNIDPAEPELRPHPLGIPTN
A value of pKi is the negative decimal logarithm of a concentration given in moles per litre.

CNc1cc(S(=O)(=O)c2ccc(N)cc2)cc(Br)n1 = 8.64

Continue with the next molecule.
I'd like to know its pKi. The molecule in question is CNc1cc(S(=O)(=O)Nc2ccc(N)cc2)cc(Br)n1
7.37

====

# methodSummary: Half-life period after intravenous administration in rat
# Format: ADME, organism-based
# conditions: in vivo
assayEndpoint: half-life (min)
Give the quantity in min, number only.

Reported half-life, molecule Nc1ccc(S(=O)(=O)c2cc(Br)nc(N3CCCC3)c2)cc1 : ____
222

====

# targetOrTestSystem: 5-hydroxytryptamine receptor 1D (Homo sapiens)
# Sequence (P28221 whole entry): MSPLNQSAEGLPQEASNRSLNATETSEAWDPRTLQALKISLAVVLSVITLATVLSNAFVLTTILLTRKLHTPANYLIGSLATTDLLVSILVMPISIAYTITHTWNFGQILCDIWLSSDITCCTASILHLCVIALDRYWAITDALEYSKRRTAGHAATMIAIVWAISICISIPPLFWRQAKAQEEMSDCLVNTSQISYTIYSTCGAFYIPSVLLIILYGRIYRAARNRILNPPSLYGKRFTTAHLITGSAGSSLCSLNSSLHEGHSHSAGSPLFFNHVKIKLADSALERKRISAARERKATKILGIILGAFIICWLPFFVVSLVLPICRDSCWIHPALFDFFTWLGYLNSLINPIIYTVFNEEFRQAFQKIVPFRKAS
assayEndpoint: Ki (nM)
Your answer is read as nM, so omit the unit and give the number.

Given the entry Nc1ccc(S(=O)(=O)c2cc(Br)nc(N3CCNCC3)c2)cc1 , what Ki was observed with 5-hydroxytryptamine receptor 1D (Homo sapiens)?
1120

The measurements presented in this section are drawn from ChEMBL document CHEMBL1136747.
